Tested on: SW684 (Other Solid Carcinomas);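 note: after 72 h of two-drug dosing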
assay: Bliss excess, mean over the matrix (fraction); higher = more synergy
property: Bliss excess
Reply with just the number.

Give the reported Bliss excess for this molecule. COc1nnc2ccc(N3CCC(c4ccc(OCCN5CCN(C)C(=O)[C@H]5C)cc4)CC3)nn12 [AZD5153] + CC1(C)CCC(CN2CCN(c3ccc(C(=O)NS(=O)(=O)c4ccc(NCC5CCOCC5)c([N+](=O)[O-])c4)c(Oc4cnc5[nH]ccc5c4)c3)CC2)=C(c2ccc(Cl)cc2)C1 [Venetoclax] (first compound max 1 µM, 7x7, partner max 1 µM)
-0.0705

Give the reported Bliss excess for this molecule. CC1(C)CCC(CN2CCN(c3ccc(C(=O)NS(=O)(=O)c4ccc(NCC5CCOCC5)c([N+](=O)[O-])c4)c(Oc4cnc5[nH]ccc5c4)c3)CC2)=C(c2ccc(Cl)cc2)C1 [Venetoclax] + CN(C)CCCOc1ccc(-c2ccc3ncc4c(c3c2)n(C2CCOCC2)c(=O)n4C)cn1 [AZD0156] (first compound max 1 µM, 7x7, partner max 1 µM)
-0.0333

Give the reported Bliss excess for this molecule. CC(=O)c1c(C)c2cnc(Nc3ccc(N4CCNCC4)cn3)nc2n(C2CCCC2)c1=O [Palbociclib] + CC1(C)CCC(CN2CCN(c3ccc(C(=O)NS(=O)(=O)c4ccc(NCC5CCOCC5)c([N+](=O)[O-])c4)c(Oc4cnc5[nH]ccc5c4)c3)CC2)=C(c2ccc(Cl)cc2)C1 [Venetoclax] (first compound max 10 µM, 7x7, partner max 1 µM)
-0.0492

Give the reported Bliss excess for this molecule. CCc1c2c(nc3ccc(O)cc13)-c1cc3c(c(=O)n1C2)COC(=O)[C@]3(O)CC [SN-38] + CN(C)CCCOc1ccc(-c2ccc3ncc4c(c3c2)n(C2CCOCC2)c(=O)n4C)cn1 [AZD0156] (first compound max 0.3 µM, 7x7, partner max 1 µM)
-0.0457

Give the reported Bliss excess for this molecule. CN(C)CCCOc1ccc(-c2ccc3ncc4c(c3c2)n(C2CCOCC2)c(=O)n4C)cn1 [AZD0156] + C[C@@H]1COCCN1C2=NC(=NC(=C2)C3(CC3)[S@](=N)(=O)C)C4=C5C=CNC5=NC=C4 [AZD6738] (first compound max 1 µM, 7x7, partner max 10 µM)
-0.0526

Give the reported Bliss excess for this molecule. COc1cccc(OCCCN)c1-c1cc(Nc2cnc(C#N)cn2)n[nH]1 [Prexasertib] + O=C(c1cc(Cc2n[nH]c(=O)c3ccccc23)ccc1F)N1CCN(C(=O)C2CC2)CC1 [Olaparib] (first compound max 1 µM, 7x7, partner max 10 µM)
-0.0742

Give the reported Bliss excess for this molecule. Cc1c2c(nn1C)CSCc1cc(n(C)n1)CSc1cc(c3ccccc3c1)OCCCc1c(C(=O)O)n(C)c3c-2c(Cl)ccc13 [AZD5991] + C=CCn1c(=O)c2cnc(Nc3ccc(N4CCN(C)CC4)cc3)nc2n1-c1cccc(C(C)(C)O)n1 [AZD1775] (first compound max 1 µM, partner max 1 µM)
-0.0161

Give the reported Bliss excess for this molecule. CC1(C)CCC(CN2CCN(c3ccc(C(=O)NS(=O)(=O)c4ccc(NCC5CCOCC5)c([N+](=O)[O-])c4)c(Oc4cnc5[nH]ccc5c4)c3)CC2)=C(c2ccc(Cl)cc2)C1 [Venetoclax] + C[C@@H]1COCCN1C2=NC(=NC(=C2)C3(CC3)[S@](=N)(=O)C)C4=C5C=CNC5=NC=C4 [AZD6738] (first compound max 1 µM, 7x7, partner max 10 µM)
-0.0138

Give the reported Bliss excess for this molecule. NC1(C(=O)N[C@@H](CCO)c2ccc(Cl)cc2)CCN(c2ncnc3[nH]ccc23)CC1 [Capivasertib] + Cn1cnc2c(F)c(Nc3ccc(Br)cc3Cl)c(C(=O)NOCCO)cc21 [Selumetinib] (first compound max 10 µM, 7x7, partner max 10 µM)
0.0495

Give the reported Bliss excess for this molecule. COc1nnc2ccc(N3CCC(c4ccc(OCCN5CCN(C)C(=O)[C@H]5C)cc4)CC3)nn12 [AZD5153] + Cn1cnc2c(F)c(Nc3ccc(Br)cc3Cl)c(C(=O)NOCCO)cc21 [Selumetinib] (first compound max 1 µM, 7x7, partner max 10 µM)
-0.0187

Give the reported Bliss excess for this molecule. C=CCn1c(=O)c2cnc(Nc3ccc(N4CCN(C)CC4)cc3)nc2n1-c1cccc(C(C)(C)O)n1 [AZD1775] + O=C(c1cc(Cc2n[nH]c(=O)c3ccccc23)ccc1F)N1CCN(C(=O)C2CC2)CC1 [Olaparib] (first compound max 1 µM, partner max 10 µM)
-0.0689

Give the reported Bliss excess for this molecule. CC1(C)CCC(CN2CCN(c3ccc(C(=O)NS(=O)(=O)c4ccc(NCC5CCOCC5)c([N+](=O)[O-])c4)c(Oc4cnc5[nH]ccc5c4)c3)CC2)=C(c2ccc(Cl)cc2)C1 [Venetoclax] + Cn1cnc2c(F)c(Nc3ccc(Br)cc3Cl)c(C(=O)NOCCO)cc21 [Selumetinib] (first compound max 1 µM, 7x7, partner max 3 µM)
-0.0631

Give the reported Bliss excess for this molecule. Cc1c2c(nn1C)CSCc1cc(n(C)n1)CSc1cc(c3ccccc3c1)OCCCc1c(C(=O)O)n(C)c3c-2c(Cl)ccc13 [AZD5991] + Nc1ccn([C@@H]2O[C@H](CO)[C@@H](O)C2(F)F)c(=O)n1 [Gemcitabine] (first compound max 1 µM, 7x7, partner max 0.3 µM)
-0.0767

Give the reported Bliss excess for this molecule. CN(CCO)CC[C@H](CSc1ccccc1)Nc1ccc(S(=O)(=O)NC(=O)c2ccc(N3CCC([C@@H](O)c4ccccc4-c4ccc(Cl)cc4)CC3)cc2)cc1S(=O)(=O)C(F)(F)F [AZD4320] + C1CN(CCC1(C(=O)N[C@@H](CCO)C2=CC=C(C=C2)Cl)N)C3=NC=NC4=C3C=CN4 [Capivasertib] (first compound max 1 µM, 7x7, partner max 3 µM)
-0.0619
